- Measurement Protocol: microbe, parasite or virus in culture
- Condition Summary: Mycobacterium tuberculosis, 96 h, read-out: pIC50 (converted)
Reported Endpoint: IC50 (µM)

In [3]: df
Out[3]:
                                smiles_code  inequality_operator  experimental_result
0  O=C(c1cc(-c2ccn(CC3CC3)n2)n2ccccc12)N1CCOCC1                    >                 50.1
1            CN(C)c1cc(C(=O)Nc2ccccc2F)ccn1                    =                  321
2    CC(C)c1cc(C(=O)N[C@@H]2CCOC[C@H]2O)cs1                    >                  501
3                  CCCSc1ccc(NC(=O)NCCN)cc1                    =                  233
